Values compiled from patent US11439622B2.

target: NDM-1 (New Delhi metallo-β-lactamase-1) (Klebsiella pneumoniae); assay: Enzyme inhibition assay, NDM-1; assay type: biochemical; conditions: read-out: pIC50 NDM-1 (converted)
Under this convention, Satisfied denotes IC50 strictly below 30 nM and Not satisfied denotes IC50 at or above 30 nM.

Molecule | Measured on | Label class
CN(C)C(=O)c1ccc(-c2c(C(=O)O)[nH]c3c(CCOc4ccccc4)cccc23)cc1 [Example 83] | NDM-1 (New Delhi metallo-β-lactamase-1) (Klebsiella pneumoniae) | Satisfied
COc1ccccc1-c1c(C(=O)O)[nH]c2c(C)cccc12 [Example 20] | NDM-1 (New Delhi metallo-β-lactamase-1) (Klebsiella pneumoniae) | Not satisfied
CC(C)c1cccc2c(-c3ccc(S(=O)(=O)N(C)C)cc3)c(C(=O)O)[nH]c12 [Example 73] | NDM-1 (New Delhi metallo-β-lactamase-1) (Klebsiella pneumoniae) | Satisfied
CC(C)c1cccc2c(-c3ccc(S(=O)(=O)N4CCOCC4)cc3)c(C(=O)O)[nH]c12 [Example 95] | NDM-1 (New Delhi metallo-β-lactamase-1) (Klebsiella pneumoniae) | Satisfied
COCCc1cccc2c(-c3ccc(F)cc3)c(C(=O)O)[nH]c12 [Example 61] | NDM-1 (New Delhi metallo-β-lactamase-1) (Klebsiella pneumoniae) | Not satisfied
Cc1cccc2c(-c3cccc([N+](=O)[O-])c3)c(C(=O)O)[nH]c12 [Example 15] | NDM-1 (New Delhi metallo-β-lactamase-1) (Klebsiella pneumoniae) | Satisfied
Cc1cccc2c(-c3ccc(-c4ccccc4)cc3)c(C(=O)O)[nH]c12 [Example 40] | NDM-1 (New Delhi metallo-β-lactamase-1) (Klebsiella pneumoniae) | Satisfied
CC(C)(C)c1cccc2c(-c3ccc(F)cc3)c(C(=O)O)[nH]c12 [Example 57] | NDM-1 (New Delhi metallo-β-lactamase-1) (Klebsiella pneumoniae) | Not satisfied

---

Reported IC50 values follow for various compounds
biological target: IMP-1 (Imipenemase-1) (Serratia marcescens, UniProt P52699); experiment: Enzyme inhibition assay, IMP-1; assay type: biochemical; details: read-out: pIC50 IMP-1 (converted)
Sequence (P52699 19-246, looked up, species assumed): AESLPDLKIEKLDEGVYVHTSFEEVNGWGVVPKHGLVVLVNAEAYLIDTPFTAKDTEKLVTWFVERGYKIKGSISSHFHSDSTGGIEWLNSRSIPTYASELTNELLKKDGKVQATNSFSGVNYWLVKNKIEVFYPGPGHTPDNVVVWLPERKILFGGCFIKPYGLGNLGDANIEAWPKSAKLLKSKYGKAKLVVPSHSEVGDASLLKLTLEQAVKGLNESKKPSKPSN

Compound | Bound type | IC50 [µM]
Cc1cccc2c(-c3ccccc3C#N)c(C(=O)O)[nH]c12 [Example 28] | = | 25.1
CC(C)c1cccc2c(-c3cc(Cl)cc(Cl)c3)c(C(=O)O)[nH]c12 [Example 76] | = | 0.0158
CC(C)c1cccc2c(-c3ccc(S(=O)(=O)N(C)C)cc3)c(-c3nnn[nH]3)[nH]c12 [Example 102] | = | 13.2
O=C(O)c1[nH]c2c(Cl)cccc2c1-c1ccc(F)cc1 [Example 54] | = | 31.6
Cc1cccc2c(-c3ccn4ncnc4c3)c(C(=O)O)[nH]c12 [Example 21] | > | 100
O=C(O)c1[nH]c2c(C3CC3)cccc2c1-c1ccc(F)cc1 [Example 106] | = | 0.501
Cc1cccc2c(-c3cccc(N(C)C)c3)c(C(=O)O)[nH]c12 [Example 17] | > | 100
Cc1cccc2c(-c3ccc4[nH]ncc4c3)c(C(=O)O)[nH]c12 [Example 19] | = | 5.01
Cc1cccc2c(-c3ccc(S(N)(=O)=O)cc3)c(C(=O)O)[nH]c12 [Example 6] | = | 10
Cc1cccc2c(-c3ccc(Cn4cccn4)cc3)c(C(=O)O)[nH]c12 [Example 34] | = | 0.0501
CC(=O)NCc1ccc(-c2c(C(=O)O)[nH]c3c(C(C)C)cccc23)cc1 [Example 90] | = | 0.0617
O=C(O)c1[nH]c2c(CCO)cccc2c1-c1ccc(F)cc1 [Example 108] | = | 3.16
COc1ccc2c(-c3ccc(F)cc3)c(C(=O)O)[nH]c2c1C [Example 55] | = | 2
Cc1cccc2c(-c3ccncc3)c(C(=O)O)[nH]c12 [Example 4] | = | 12.6
Cc1cccc2c(-c3ccc4cn[nH]c4c3)c(C(=O)O)[nH]c12 [Example 32] | = | 12.6
Cc1cc(F)cc2c(-c3ccc(F)cc3)c(C(=O)O)[nH]c12 [Example 58] | = | 15.8
COc1cccc2c(-c3ccc(F)cc3)c(C(=O)O)[nH]c12 [Example 50] | = | 25.1
CN(C)C(=O)c1ccc(-c2c(C(=O)O)[nH]c3c(C(C)(C)C)cccc23)cc1 [Example 92] | = | 0.0794
Cc1cccc2c(-c3ccccc3)c(C(=O)O)[nH]c12 [Example 37] | = | 10
Cc1c(Oc2ccccc2)ccc2c(-c3ccc(S(=O)(=O)N(C)C)cc3)c(C(=O)O)[nH]c12 [Example 82] | = | 0.501
COc1cc(C)c2[nH]c(C(=O)O)c(-c3ccc(F)cc3)c2c1 [Example 60] | > | 100
Cc1cccc2c(-c3cc(Cl)cc(Cl)c3)c(C(=O)O)[nH]c12 [Example 3] | = | 5.01
Cc1ccc2c(-c3ccc(C(N)=O)cc3)c(C(=O)O)[nH]c2c1 [Example 48] | > | 100
CNS(=O)(=O)c1ccc(-c2c(C(=O)O)[nH]c3c(C(C)C)cccc23)cc1 [Example 88] | = | 0.0537
Cc1cccc2c(-c3cccc(S(C)(=O)=O)c3)c(C(=O)O)[nH]c12 [Example 16] | = | 12.6
Cc1cccc2c(-c3ccc(OC(F)(F)F)cc3)c(C(=O)O)[nH]c12 [Example 2] | = | 7.94
O=C(O)c1[nH]c2c(C(F)(F)F)cccc2c1-c1ccc(F)cc1 [Example 51] | = | 2
COc1ccc(-c2c(C(=O)O)[nH]c3c(C)cccc23)cc1 [Example 9] | = | 7.94
CC(C)c1cccc2c(-c3cc(F)cc(F)c3)c(C(=O)O)[nH]c12 [Example 78] | = | 0.126
Cc1cccc2c(-c3cncnc3)c(C(=O)O)[nH]c12 [Example 22] | > | 100
Cc1cccc2c(-c3cccc([N+](=O)[O-])c3)c(C(=O)O)[nH]c12 [Example 15] | = | 15.8
CC(C)c1cccc2c(-c3ccc(N4CCOCC4)cc3)c(C(=O)O)[nH]c12 [Example 70] | = | 0.01
Cc1cccc2c(-c3ccc(N)cc3)c(C(=O)O)[nH]c12 [Example 23] | = | 7.94
Cc1ccc2c(-c3ccc(S(N)(=O)=O)cc3)c(C(=O)O)[nH]c2c1 [Example 47] | = | 50.1
Cc1cccc2c(-c3ccc(C(F)(F)F)cc3)c(C(=O)O)[nH]c12 [Example 11] | = | 12.6
COc1cccc(-c2c(C(=O)O)[nH]c3c(C(C)C)cccc23)c1OC [Example 77] | = | 12.6
Cc1cccc2c(C3=CCN(C(=O)OC(C)(C)C)CC3)c(C(=O)O)[nH]c12 [Example 25] | = | 5.01

---

molecular target: VIM-2 (Veronese metallo-β-lactamase-2) (Escherichia coli); assay: Enzyme inhibition assay, VIM-2; type: biochemical

Compound | IC50 (µM)
Cc1cccc2c(C3=CCNCC3)c(C(=O)O)[nH]c12 [Example 36] | 39.8

---

molecular target: NDM-1 (New Delhi metallo-β-lactamase-1) (Klebsiella pneumoniae, UniProt C7C422); test: Enzyme inhibition assay, NDM-1; assay type: biochemical; conditions: read-out: pIC50 NDM-1 (converted)
Sequence (C7C422 29-270, looked up, species assumed): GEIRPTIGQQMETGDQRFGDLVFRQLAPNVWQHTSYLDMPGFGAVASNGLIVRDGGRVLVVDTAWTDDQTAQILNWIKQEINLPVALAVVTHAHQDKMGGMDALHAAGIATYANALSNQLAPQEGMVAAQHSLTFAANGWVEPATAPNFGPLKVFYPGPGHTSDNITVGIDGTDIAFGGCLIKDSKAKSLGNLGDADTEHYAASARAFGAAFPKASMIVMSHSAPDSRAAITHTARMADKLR
Under this convention, yes denotes IC50 strictly below 0.1 µM and no denotes IC50 at or above 0.1 µM.

Chemical smiles | Label class
Cc1cccc2c(C3CCNCC3)c(C(=O)O)[nH]c12 | no
Cc1noc(C)c1-c1c(C(=O)O)[nH]c2c(C)cccc12 | no
Cc1cc(C)cc(-c2c(C(=O)O)[nH]c3c(C)cccc23)c1 | yes
Cc1cccc2c(-c3ccc(Cl)c(C(F)(F)F)c3)c(C(=O)O)[nH]c12 | yes
Cc1cccc2c(-c3cncnc3)c(C(=O)O)[nH]c12 | no
Cc1cccc2c(C3=CCN(C(=O)OC(C)(C)C)CC3)c(C(=O)O)[nH]c12 | yes
CC(C)c1cccc2c(-c3cc(F)cc(F)c3)c(C(=O)O)[nH]c12 | yes
O=C(O)c1[nH]c2c(CCOc3ccccc3)cccc2c1-c1ccc(F)cc1 | yes

---

Reported log10 IC50 values follow for various compounds
Target: NDM-1 (New Delhi metallo-β-lactamase-1) (Klebsiella pneumoniae)
Test: Enzyme inhibition assay, NDM-1
Format: biochemical
Settings: read-out: pIC50 NDM-1 (converted)
Protocol: The biological activity of the compounds of the present invention was tested using standard assay protocols.^7 The following representative enzymes NDM-1 (New Delhi metallo-β-lactamase-1), IMP-1 (Imipenemase-1) and VIM-2 (Veronese metallo-β-lactamase-2) were selected from different clinically relevant B1 metallo-β-lactamases.
Readout: log10 IC50 (log10 of the value in nM)

Chemical smiles | Measured on | log10 IC50
Cc1ccc2c(-c3ccc(S(N)(=O)=O)cc3)c(C(=O)O)[nH]c2c1 | NDM-1 (New Delhi metallo-β-lactamase-1) (Klebsiella pneumoniae) | 2.60
Cc1cccc2c(-c3ccc(S(N)(=O)=O)cc3)c(C(=O)O)[nH]c12 | NDM-1 (New Delhi metallo-β-lactamase-1) (Klebsiella pneumoniae) | 1.20
Cc1c(Oc2ccccc2)ccc2c(-c3ccc(Cl)cc3)c(C(=O)O)[nH]c12 | NDM-1 (New Delhi metallo-β-lactamase-1) (Klebsiella pneumoniae) | 2.00
Cc1c(Oc2ccccc2)ccc2c(-c3ccc(S(=O)(=O)N(C)C)cc3)c(C(=O)O)[nH]c12 | NDM-1 (New Delhi metallo-β-lactamase-1) (Klebsiella pneumoniae) | 0.60
O=C(O)c1[nH]c2c(Cl)cccc2c1-c1ccc(F)cc1 | NDM-1 (New Delhi metallo-β-lactamase-1) (Klebsiella pneumoniae) | 2.40
Cc1cccc2c(C3CCCC3)c(C(=O)O)[nH]c12 | NDM-1 (New Delhi metallo-β-lactamase-1) (Klebsiella pneumoniae) | 2.40
Cc1cccc2c(I)c(C(=O)O)[nH]c12 | NDM-1 (New Delhi metallo-β-lactamase-1) (Klebsiella pneumoniae) | 2.80
Cc1cccc2c(-c3ccn4ncnc4c3)c(C(=O)O)[nH]c12 | NDM-1 (New Delhi metallo-β-lactamase-1) (Klebsiella pneumoniae) | 2.10
CC(C)c1cccc2c(-c3ccc(S(N)(=O)=O)cc3)c(C(=O)O)[nH]c12 | NDM-1 (New Delhi metallo-β-lactamase-1) (Klebsiella pneumoniae) | 0.20
